Recorded values, source patent US20260234099A1.

- tested-system: CB2 receptor (Homo sapiens, UniProt P34972)
- measurement-protocol: CB2 receptor binding affinity (Ki)
- Parameters: CB2 receptor Ki; CB2 receptor Ki (PMSF); other: with PMSF
- measurement-conditions: read-out: CB2 receptor Ki
pKi: −log10 of the molar value.
Collected pKi values appear next to each entry.

get_value(item= CCCCC/C=C\C/C=C\C/C=C\C/C=C\C1CC1C(=O)NCCO (centres unmarked) , readout=pKi) returns < 6.00

Briefly, pKi measured for `C[C@H](/C=C\C/C=C\C/C=C\CCCC(=O)N[C@H](C)CO)/C=C\CCCCCO[N+](=O)[O-]` : 6.70 to 8.00

The molecule identified as `CCCCC/C=C\C/C=C\C/C=C\Cc1ccccc1CCCC(=O)NCCO` registered its pKi at 6.70 to 8.00

Consider CCCCC/C=C\C/C=C\C/C=C\C/C=C\C1CCC(C(=O)NCCO)CC1 (centres unmarked) . Its measured pKi is 6.00 to 6.70

Reported pKi for `C[C@H](/C=C\C/C=C\C/C=C\CCCC(=O)N[C@H](C)CO)/C=C\CCCCCBr` was 8.00 to 11.00

Further cases:
// pKi lookup, molecule = C[C@H](/C=C\C/C=C\C/C=C\CCCC(=O)N[C@H](C)CO)/C=C\CCCCCOC1CCCCO1 (some centres unmarked) , result: < 6.00

The recorded pKi for entry `CCCCC/C=C\C/C=C\C/C=C\Cc1ccccc1CCCC(=O)N[C@H](C)CO` equals 6.70 to 8.00

Form field pKi, entry `C[C@H](/C=C\C/C=C\C/C=C\CCCC(=O)N[C@H](C)CO)/C=C\CCCCCF` : 6.70 to 8.00
